B1: KCNK9 (parent)
chain: CFITLTTIGFGDYVALQTKGALQK

variants of: B1; assay: protein stability index of a GFP-peptide fusion (GPS, HEK-293T) (PSI 1-6); higher = more stable; settings: c terminus: a fixed tail appended;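 note: lentivirally expressed fusions sorted by FACS into six bins by GFP to DsRed ratio, PSI derived from sequencing read proportions per bin multiplied by bin number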
ASSAY_READOUT: protein stability index
// print number alone

Consider the following illustrative entries.
# MUTANT_DESIGNATION, ASSAY_READOUT, OBSERVED_VALUE
data = [
    ("A15K", "protein stability index", 2.38),
    ("A21I", "protein stability index", 2.44),
    ("G20R", "protein stability index", 3.65),
    ("G11L", "protein stability index", 3.22),
]

# context switch: different variant, same protein stability index
The reported protein stability index of the variant A15W was 3.31

All values here come from the supplement of paper PMC10567573.
